- MEASUREMENT TARGET: Bcr/Abl fusion protein (Homo sapiens)
- Sequence (P00519 whole entry, the tested form may be a part): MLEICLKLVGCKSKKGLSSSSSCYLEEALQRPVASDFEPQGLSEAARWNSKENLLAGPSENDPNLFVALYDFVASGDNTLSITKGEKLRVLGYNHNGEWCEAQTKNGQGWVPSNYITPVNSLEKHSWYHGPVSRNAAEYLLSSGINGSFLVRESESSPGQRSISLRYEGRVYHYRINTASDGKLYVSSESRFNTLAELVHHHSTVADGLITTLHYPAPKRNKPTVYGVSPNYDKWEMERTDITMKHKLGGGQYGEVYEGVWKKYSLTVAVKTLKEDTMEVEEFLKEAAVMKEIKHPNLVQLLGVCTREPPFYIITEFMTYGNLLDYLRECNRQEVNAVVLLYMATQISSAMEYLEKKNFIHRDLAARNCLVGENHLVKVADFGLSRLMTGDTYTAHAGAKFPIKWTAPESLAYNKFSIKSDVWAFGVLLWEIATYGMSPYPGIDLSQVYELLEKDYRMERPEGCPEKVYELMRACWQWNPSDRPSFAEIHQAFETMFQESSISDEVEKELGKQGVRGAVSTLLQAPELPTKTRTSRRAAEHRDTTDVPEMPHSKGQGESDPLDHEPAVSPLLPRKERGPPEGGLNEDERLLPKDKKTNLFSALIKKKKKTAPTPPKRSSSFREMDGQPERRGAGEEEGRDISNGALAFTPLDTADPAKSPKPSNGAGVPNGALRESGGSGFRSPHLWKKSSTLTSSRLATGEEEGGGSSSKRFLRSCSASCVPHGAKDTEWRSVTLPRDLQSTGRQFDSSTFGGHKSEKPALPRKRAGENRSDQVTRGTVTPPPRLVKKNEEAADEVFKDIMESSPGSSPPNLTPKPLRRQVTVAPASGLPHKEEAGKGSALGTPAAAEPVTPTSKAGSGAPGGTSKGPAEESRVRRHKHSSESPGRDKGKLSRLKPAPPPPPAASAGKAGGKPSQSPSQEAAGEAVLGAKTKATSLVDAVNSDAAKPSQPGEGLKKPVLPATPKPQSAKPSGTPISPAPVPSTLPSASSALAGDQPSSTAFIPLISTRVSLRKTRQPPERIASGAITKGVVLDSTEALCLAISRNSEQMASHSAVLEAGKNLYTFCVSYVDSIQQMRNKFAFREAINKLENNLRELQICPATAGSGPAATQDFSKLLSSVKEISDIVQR
- Sequence (P11274 whole entry, further chain, the tested form may be a part): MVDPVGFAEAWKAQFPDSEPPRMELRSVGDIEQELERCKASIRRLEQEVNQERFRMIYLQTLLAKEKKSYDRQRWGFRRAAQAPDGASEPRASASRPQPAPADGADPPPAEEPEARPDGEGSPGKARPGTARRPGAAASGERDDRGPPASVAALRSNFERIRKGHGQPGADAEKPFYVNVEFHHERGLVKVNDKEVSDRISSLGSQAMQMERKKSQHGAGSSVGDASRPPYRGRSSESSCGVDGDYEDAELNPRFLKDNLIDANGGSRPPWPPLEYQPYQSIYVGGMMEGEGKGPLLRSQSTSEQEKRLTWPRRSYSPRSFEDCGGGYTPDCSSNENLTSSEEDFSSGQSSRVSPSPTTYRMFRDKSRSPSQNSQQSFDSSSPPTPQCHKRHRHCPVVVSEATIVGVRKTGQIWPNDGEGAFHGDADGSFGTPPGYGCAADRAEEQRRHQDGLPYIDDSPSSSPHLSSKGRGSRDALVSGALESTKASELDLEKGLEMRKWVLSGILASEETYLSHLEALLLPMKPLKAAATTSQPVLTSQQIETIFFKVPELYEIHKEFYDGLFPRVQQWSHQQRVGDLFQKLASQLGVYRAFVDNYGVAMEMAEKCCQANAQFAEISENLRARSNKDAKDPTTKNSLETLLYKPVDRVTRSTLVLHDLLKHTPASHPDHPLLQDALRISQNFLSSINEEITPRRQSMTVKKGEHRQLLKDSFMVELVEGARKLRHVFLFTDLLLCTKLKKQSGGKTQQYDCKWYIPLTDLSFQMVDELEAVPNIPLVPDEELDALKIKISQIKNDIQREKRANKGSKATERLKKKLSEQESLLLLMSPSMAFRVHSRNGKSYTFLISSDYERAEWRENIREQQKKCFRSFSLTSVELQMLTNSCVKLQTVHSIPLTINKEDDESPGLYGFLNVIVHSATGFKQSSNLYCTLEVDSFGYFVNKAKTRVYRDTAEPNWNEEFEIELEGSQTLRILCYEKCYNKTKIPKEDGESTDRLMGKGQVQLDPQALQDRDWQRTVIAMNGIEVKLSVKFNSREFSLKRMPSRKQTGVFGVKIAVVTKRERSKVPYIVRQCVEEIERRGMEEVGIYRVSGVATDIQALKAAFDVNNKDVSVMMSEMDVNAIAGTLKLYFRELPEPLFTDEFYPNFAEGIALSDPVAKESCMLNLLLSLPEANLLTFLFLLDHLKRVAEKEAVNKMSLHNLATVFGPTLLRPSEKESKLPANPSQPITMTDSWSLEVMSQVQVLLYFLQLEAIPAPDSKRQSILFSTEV
- ASSAY METHOD TEXT: Inhibition of BCR-Abl (unknown origin) incubated for 1 hr by ADP-glo assay
QUANTITY NAME: IC50 (nM)
Report the figure in nM without appending any unit label.

Lab book: IC50 of "CCN1CCN(Cc2cc(Nc3ncc(C(=O)Nc4ccccc4N)s3)nc(C)n2)CC1" noted as 21.2

----------
- MEASUREMENT TARGET: Epidermal growth factor receptor (Homo sapiens)
- Sequence (P00533 whole entry): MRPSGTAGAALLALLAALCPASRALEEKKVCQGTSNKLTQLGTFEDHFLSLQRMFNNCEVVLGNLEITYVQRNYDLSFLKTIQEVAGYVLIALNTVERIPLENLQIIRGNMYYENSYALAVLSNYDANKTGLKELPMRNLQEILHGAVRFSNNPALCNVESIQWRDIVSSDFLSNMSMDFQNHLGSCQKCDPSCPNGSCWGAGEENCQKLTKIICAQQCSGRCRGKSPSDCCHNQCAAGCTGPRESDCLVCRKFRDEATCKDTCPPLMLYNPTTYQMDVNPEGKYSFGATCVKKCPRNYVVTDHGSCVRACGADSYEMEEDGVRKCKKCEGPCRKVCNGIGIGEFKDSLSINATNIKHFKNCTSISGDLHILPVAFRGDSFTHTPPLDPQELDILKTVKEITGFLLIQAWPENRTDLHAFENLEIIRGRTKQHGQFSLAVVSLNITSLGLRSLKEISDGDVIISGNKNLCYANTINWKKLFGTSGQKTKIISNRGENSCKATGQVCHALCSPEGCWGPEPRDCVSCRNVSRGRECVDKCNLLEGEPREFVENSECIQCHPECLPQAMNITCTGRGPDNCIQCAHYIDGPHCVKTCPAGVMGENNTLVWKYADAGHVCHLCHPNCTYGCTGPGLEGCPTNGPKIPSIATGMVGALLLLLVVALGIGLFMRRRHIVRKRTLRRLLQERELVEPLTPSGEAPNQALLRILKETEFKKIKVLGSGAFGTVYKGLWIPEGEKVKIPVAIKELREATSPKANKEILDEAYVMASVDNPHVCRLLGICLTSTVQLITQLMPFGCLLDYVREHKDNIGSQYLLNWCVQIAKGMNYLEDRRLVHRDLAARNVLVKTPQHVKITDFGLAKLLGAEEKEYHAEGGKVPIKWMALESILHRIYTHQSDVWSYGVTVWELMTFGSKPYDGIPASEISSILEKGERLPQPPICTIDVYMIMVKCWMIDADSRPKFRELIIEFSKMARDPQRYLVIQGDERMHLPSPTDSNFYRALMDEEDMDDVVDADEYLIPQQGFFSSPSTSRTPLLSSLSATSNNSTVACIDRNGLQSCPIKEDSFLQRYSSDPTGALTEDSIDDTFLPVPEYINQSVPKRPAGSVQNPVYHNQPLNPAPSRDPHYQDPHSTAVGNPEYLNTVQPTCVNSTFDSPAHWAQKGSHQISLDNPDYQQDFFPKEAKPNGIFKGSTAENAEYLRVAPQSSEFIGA
- ASSAY METHOD TEXT: Inhibition of EGFR (unknown origin) by ELISA
QUANTITY NAME: IC50 (nM)
Report the figure in nM without appending any unit label.

Lab book: IC50 of "Cc1ccc2c(=O)n(Cc3ccccc3)c(SCc3cn(-c4ccc(C(=O)O)cc4)nn3)nc2c1" noted as 38.8

----------
- MEASUREMENT TARGET: Protein deacetylase HDAC6 (Homo sapiens)
- Sequence (Q9UBN7 whole entry): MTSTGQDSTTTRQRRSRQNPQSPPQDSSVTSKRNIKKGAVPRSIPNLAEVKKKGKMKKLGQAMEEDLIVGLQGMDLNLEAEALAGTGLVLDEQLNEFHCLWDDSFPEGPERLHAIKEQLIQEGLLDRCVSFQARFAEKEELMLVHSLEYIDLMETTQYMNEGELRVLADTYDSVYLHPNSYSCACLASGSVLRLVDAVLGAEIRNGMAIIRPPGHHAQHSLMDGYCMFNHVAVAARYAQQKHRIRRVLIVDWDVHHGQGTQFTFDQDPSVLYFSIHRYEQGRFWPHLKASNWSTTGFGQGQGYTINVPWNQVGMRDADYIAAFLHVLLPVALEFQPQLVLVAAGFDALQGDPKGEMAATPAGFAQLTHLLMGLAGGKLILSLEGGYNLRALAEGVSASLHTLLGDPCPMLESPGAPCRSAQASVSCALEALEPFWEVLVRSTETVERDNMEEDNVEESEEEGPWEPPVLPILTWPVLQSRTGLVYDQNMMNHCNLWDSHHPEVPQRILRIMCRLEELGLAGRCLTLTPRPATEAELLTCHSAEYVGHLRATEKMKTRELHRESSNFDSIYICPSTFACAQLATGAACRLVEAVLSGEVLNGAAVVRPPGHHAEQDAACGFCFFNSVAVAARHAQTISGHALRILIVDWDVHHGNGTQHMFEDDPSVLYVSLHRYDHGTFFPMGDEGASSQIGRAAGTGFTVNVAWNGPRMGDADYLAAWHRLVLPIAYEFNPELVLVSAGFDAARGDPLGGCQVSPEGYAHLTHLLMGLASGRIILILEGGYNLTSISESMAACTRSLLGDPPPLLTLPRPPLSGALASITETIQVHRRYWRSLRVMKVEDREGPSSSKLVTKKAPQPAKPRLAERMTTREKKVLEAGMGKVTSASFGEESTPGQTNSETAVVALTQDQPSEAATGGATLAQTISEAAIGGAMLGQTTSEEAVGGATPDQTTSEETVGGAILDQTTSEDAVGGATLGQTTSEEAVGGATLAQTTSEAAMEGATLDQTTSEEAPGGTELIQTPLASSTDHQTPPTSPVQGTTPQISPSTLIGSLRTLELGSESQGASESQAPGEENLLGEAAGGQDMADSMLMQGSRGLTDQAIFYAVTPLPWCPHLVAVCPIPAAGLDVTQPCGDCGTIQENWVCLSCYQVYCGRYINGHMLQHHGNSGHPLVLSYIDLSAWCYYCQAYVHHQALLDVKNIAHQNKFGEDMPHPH
- ASSAY METHOD TEXT: Inhibition of full-length recombinant human HDAC6 using Boc-Lys(e-acetyl)-AMC as substrate incubated for 3 hrs
QUANTITY NAME: pIC50
As a rule, pIC50 stands for the negative log10 of the concentration, concentration in M.

Lab book: pIC50 of "COc1c(OCCCCCC(=O)NO)ccc2c1N=C(NC(=O)c1ccccc1)N1CCN=C21" noted as 7.21
